All figures here come from paper PMC7152711.

Molecular target: CYP3A4 (Homo sapiens)
Sequence (P08684 whole entry): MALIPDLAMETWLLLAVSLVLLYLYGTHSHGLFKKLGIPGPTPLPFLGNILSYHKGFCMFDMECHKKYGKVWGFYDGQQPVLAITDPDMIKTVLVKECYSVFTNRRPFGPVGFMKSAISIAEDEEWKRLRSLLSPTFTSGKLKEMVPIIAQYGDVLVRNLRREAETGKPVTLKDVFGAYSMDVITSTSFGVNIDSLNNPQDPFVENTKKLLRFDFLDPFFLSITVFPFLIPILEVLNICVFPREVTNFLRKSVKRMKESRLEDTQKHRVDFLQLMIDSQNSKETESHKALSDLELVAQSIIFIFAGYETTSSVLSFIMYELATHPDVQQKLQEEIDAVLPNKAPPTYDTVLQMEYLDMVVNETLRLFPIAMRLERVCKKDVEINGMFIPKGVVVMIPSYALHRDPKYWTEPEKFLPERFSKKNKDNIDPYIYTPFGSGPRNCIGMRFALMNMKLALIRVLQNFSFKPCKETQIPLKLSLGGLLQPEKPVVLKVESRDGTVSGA
metric.name: IC50

smiles.record	assay.system	metric.name	data.value
COc1ccc2nc3cc(Cl)ccc3c(Nc3cc(CN4CCCC4)c(O)c(CN4CCCC4)c3)c2n1	CYP3A4 (Homo sapiens)	IC50	> 10 µM

----------
Target: CYP2C19 (Homo sapiens, UniProt P33261)
Sequence (P33261 whole entry): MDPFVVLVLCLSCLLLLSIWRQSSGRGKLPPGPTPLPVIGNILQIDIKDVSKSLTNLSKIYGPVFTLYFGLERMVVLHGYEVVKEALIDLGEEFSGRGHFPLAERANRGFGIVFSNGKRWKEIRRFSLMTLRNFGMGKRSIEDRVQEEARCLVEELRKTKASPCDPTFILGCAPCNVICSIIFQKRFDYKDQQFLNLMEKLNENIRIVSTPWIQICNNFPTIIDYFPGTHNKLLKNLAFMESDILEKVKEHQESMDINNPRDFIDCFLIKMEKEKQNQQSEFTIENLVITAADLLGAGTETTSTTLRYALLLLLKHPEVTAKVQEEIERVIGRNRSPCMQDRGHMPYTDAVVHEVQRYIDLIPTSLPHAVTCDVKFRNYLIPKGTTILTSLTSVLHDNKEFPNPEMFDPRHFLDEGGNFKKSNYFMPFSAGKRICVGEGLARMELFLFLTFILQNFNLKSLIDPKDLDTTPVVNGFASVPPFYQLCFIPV
metric.name: IC50

smiles.record	metric.name	data.value
COc1ccc2nc3cc(Cl)ccc3c(Nc3cc(CN4CCCC4)c(O)c(CN4CCCC4)c3)c2n1	IC50	> 10 µM

----------
Molecular target: CYP2D6 (Homo sapiens, UniProt P10635)
Sequence (P10635 whole entry): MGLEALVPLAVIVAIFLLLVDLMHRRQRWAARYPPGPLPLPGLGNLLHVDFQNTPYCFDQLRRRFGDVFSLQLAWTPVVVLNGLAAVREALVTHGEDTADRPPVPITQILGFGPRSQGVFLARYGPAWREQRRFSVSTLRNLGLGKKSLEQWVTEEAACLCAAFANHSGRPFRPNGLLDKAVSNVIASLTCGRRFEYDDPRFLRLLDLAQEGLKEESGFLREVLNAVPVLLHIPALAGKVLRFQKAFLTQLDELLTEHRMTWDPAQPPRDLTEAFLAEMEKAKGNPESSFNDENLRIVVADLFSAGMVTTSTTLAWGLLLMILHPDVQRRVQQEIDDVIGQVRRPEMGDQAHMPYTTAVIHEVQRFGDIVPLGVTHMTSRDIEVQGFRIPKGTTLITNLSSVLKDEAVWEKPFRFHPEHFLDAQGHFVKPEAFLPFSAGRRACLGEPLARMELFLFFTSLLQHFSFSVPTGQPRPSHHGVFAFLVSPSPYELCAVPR
pIC50: −log10 of the molar value.

smiles.record	pIC50
COc1ccc2nc3cc(Cl)ccc3c(Nc3cc(CN4CCCC4)c(O)c(CN4CCCC4)c3)c2n1	5.82

----------
Experiment: In vivo pharmacokinetics and tissue distribution
Parameters: species or system mice
Conditions: male, ICR, mouse, lungs/plasma, intraperitoneal, 57 mg/kg

smiles.record	Kp
COc1ccc2nc3cc(Cl)ccc3c(Nc3cc(CN4CCCC4)c(O)c(CN4CCCC4)c3)c2n1	81.7

----------
Molecular target: E. granulosus ss topoisomerase I (Egtopo I) (Echinococcus granulosus, UniProt W6UT38)
Sequence (W6UT38 1-621): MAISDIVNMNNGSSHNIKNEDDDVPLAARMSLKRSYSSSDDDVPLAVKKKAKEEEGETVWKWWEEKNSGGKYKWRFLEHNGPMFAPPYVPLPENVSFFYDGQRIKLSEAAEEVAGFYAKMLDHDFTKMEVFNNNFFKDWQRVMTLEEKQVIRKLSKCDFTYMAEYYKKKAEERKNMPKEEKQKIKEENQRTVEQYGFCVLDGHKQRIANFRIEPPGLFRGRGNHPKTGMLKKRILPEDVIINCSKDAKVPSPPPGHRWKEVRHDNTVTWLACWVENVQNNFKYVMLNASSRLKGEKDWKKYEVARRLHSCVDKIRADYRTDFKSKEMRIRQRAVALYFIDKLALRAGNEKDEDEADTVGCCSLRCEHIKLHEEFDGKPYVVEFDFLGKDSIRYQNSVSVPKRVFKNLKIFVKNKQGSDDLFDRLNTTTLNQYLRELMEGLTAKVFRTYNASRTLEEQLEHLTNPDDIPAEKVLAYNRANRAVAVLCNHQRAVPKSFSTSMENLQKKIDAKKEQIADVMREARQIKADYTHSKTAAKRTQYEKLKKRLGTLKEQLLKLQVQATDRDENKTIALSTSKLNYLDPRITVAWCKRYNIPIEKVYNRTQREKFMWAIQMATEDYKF
pIC50: −log10 of the molar value.

smiles.record	assay.system	pIC50
COc1ccc2nc3cc(Cl)ccc3c(Nc3cc(CN4CCCC4)c(O)c(CN4CCCC4)c3)c2n1	E. granulosus ss topoisomerase I (Egtopo I) (Echinococcus granulosus, UniProt W6UT38)	3.68

----------
Target: CYP2C9 (Homo sapiens, UniProt P11712)
Sequence (P11712 whole entry): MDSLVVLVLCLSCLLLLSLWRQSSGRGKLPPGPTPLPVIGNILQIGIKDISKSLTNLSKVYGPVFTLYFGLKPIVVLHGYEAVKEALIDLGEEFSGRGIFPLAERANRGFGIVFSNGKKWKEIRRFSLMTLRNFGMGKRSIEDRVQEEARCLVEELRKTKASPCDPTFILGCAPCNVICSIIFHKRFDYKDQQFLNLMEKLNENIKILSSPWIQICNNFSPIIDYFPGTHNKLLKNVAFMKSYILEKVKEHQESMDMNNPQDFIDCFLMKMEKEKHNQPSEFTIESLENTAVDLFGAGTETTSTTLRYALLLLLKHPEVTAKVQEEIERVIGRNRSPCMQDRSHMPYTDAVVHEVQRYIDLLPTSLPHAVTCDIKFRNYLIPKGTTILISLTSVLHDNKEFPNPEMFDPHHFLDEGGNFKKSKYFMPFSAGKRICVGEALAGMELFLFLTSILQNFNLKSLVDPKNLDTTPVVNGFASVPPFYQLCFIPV
Test: CYP450 inhibition assay, human liver microsomes
Assay type: in vitro ADME
pIC50: −log10 of the molar value.
metric.name: pIC50

compound	assay.system	data.value
COc1ccc2nc3cc(Cl)ccc3c(Nc3cc(CN4CCCC4)c(O)c(CN4CCCC4)c3)c2n1 [PND, pyronaridine]	CYP2C9 (Homo sapiens, UniProt P11712)	< 5.00
